- experimentalSystem: UniProt:P08183
- runDescription: Stimulation of human P-gp-His10 ATPase activity
- measurementSetup: read-out: KM (apparent Michaelis-Menten constant, concentration for half maximal stimulation of ATPase activity)
Kindly return Fulfilled if reported Km is no lower than 0.4 µM; return Not fulfilled if it is lower.

molecule | cat
COc1cccc(-c2c3ccc(=[N+](C)C)cc-3sc3cc(N(C)C)ccc23)c1 [Compound 10-S] | Fulfilled
CN(C)c1ccc(-c2c3ccc(=[N+](C)C)cc-3sc3cc(N(C)C)ccc23)cc1 [Compound 5-S] | Fulfilled
CN(C)c1ccc2c(-c3ccc(C(=S)N4CCCCC4)s3)c3ccc(N(C)C)cc3[s+]c2c1 [Compound 30-S] | Not fulfilled
CN(C)c1cccc(-c2c3ccc(=[N+](C)C)cc-3sc3cc(N(C)C)ccc23)c1 [Compound 7-S] | Fulfilled
CN(C)c1ccc2c(-c3ccc(C(=S)N4CCCCC4)s3)c3cc4c5c(c3[s+]c2c1)CCCN5CCC4.F[P-](F)(F)(F)(F)F [Compound 31-S] | Not fulfilled

----------
- Test system: P-gp
- runDescription: in vitro
- measurementSetup: dog, MDCK-MDR1
observedProperty: Papp

compound | experimentalSystem | reportedResult
CN(C)c1ccc2c(-c3ccc(CCl)cc3)c3ccc(=[N+](C)C)cc-3oc2c1.[Br-] [TMR, tetramethylrosamine] | P-gp | 1.7 ×10⁻⁶ cm/s

----------
Parameter 'readout' = Km; parameter 'system' = human P-gp-His10 (Homo sapiens).
Sequence (P08183 whole entry): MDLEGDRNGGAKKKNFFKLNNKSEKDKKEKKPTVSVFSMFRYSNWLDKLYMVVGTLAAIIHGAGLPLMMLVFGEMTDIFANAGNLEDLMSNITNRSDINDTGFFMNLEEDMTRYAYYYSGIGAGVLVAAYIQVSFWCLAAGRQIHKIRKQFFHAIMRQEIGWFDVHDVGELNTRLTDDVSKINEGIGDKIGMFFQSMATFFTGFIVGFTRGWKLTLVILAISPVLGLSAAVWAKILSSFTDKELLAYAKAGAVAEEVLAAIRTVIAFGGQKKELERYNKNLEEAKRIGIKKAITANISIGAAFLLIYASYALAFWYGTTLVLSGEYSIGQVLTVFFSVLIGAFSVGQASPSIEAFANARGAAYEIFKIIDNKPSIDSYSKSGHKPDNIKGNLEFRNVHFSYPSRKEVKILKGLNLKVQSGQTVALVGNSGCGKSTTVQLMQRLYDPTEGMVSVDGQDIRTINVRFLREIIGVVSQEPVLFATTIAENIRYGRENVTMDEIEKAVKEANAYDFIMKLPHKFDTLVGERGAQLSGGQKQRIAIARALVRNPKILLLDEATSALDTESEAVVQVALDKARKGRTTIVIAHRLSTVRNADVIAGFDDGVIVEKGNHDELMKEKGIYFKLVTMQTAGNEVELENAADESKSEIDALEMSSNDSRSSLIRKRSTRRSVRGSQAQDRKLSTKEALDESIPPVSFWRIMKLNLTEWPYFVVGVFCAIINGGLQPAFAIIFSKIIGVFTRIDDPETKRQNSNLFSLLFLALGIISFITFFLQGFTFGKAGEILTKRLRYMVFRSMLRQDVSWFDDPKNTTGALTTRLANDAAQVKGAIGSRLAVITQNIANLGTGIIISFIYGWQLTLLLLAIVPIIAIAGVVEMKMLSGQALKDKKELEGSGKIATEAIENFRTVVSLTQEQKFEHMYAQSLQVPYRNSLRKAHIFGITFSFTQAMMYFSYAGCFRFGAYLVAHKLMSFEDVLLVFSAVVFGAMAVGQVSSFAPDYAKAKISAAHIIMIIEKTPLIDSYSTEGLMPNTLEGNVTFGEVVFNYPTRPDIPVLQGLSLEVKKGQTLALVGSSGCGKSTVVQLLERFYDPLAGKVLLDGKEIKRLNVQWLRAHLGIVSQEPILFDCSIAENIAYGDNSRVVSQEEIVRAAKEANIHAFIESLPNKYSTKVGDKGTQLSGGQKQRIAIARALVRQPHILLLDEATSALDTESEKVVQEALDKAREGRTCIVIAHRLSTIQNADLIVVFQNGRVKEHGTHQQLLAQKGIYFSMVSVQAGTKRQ

structureSmilesString | experimentalSystem | endpointUnit | Km
CN(C)c1cccc(-c2c3ccc(=[N+](C)C)cc-3[te]c3cc(N(C)C)ccc23)c1 | human P-gp-His10 (Homo sapiens) | µM | 2
CN(C)c1ccc2c(-c3ccccc3)c3ccc(=[N+](C)C)cc-3[te]c2c1 | human P-gp-His10 (Homo sapiens) | µM | 8.3
CN(C)c1ccc2c(-c3ccccc3)c3ccc(=[N+](C)C)cc-3[se]c2c1 | human P-gp-His10 (Homo sapiens) | µM | 9.1
COc1cccc(-c2c3ccc(=[N+](C)C)cc-3[te]c3cc(N(C)C)ccc23)c1 | human P-gp-His10 (Homo sapiens) | µM | 3.2
COc1cccc(-c2c3ccc(=[N+](C)C)cc-3[se]c3cc(N(C)C)ccc23)c1 | human P-gp-His10 (Homo sapiens) | µM | 3.3
CN(C)c1ccc(-c2c3ccc(=[N+](C)C)cc-3[te]c3cc(N(C)C)ccc23)cc1 | human P-gp-His10 (Homo sapiens) | µM | 9
CN(C)c1cccc(-c2c3ccc(=[N+](C)C)cc-3[se]c3cc(N(C)C)ccc23)c1 | human P-gp-His10 (Homo sapiens) | µM | 3.5
CN(C)c1ccc(-c2c3ccc(=[N+](C)C)cc-3[se]c3cc(N(C)C)ccc23)cc1 | human P-gp-His10 (Homo sapiens) | µM | 10.1
